Hi there, I'd appreciate the recorded MIC for every entry that follows.
# Test system: P. acnes ATCC 11827

In [3]: df
Out[3]:
                             chemicalsmiles  quantitykind       result
0  CCO/N=C(\C)c1cc(CNCC(C)(C)C)c(O)c2c1C[C@H]1C[C@H]3[C@H](N(C)C)C(O)=C(C(N)=O)C(=O)[C@@]3(O)C(O)=C1C2=O           MIC     < 4 mg/L
1  CN(C)[C@@H]1C(O)=C(C(N)=O)C(=O)[C@@]2(O)C(O)=C3C(=O)c4c(O)ccc(CN5CCCCO5)c4C[C@H]3C[C@@H]12           MIC     < 4 mg/L
2  CN(C)[C@@H]1C(O)=C(C(N)=O)C(=O)[C@@]2(O)C(O)=C3C(=O)c4cccc(-c5ncccn5)c4C[C@H]3C[C@@H]12           MIC  4 to 8 mg/L
3  CC(=O)c1cccc2c1C[C@H]1C[C@H]3[C@@H](N(C)C)C(O)=C(C(N)=O)C(=O)[C@@]3(O)C(O)=C1C2=O           MIC  4 to 8 mg/L
4  CN(C)[C@@H]1C(O)=C(C(N)=O)C(=O)[C@@]2(O)C(O)=C3C(=O)c4c(O)ccc(CNOCCF)c4C[C@H]3C[C@@H]12           MIC     < 4 mg/L

Turning now to a further compound:
Summary: CON(C)Cc1ccc2c(c1O)C(=O)C1=C(O)[C@]3(O)C(=O)C(C(N)=O)=C(O)[C@@H](N(C)C)[C@@H]3C[C@@H]1C2 , P. acnes ATCC 11827, MIC = 4 to 8 mg/L
